test system: CEM cells HIV-1 protection, formazan growth assay; test: NCI AIDS Antiviral Assay
Parameter Measured: EC50

CC(=O)OCC1OC(n2cnc([N+](=O)[O-])c2Br)C(OC(C)=O)C1OC(C)=O (configuration not stated) ... > 200 µM
CC(O)c1c2c(cc3c1CC1(C3)Cc3cc4c(c(C(C)O)c3C1)CCC4)CCC2 (configuration not stated) ... > 200 µM
O=C1OC(C2Cc3ccc4c(c3C2=O)CCC4)c2ccccc21 (configuration not stated) ... > 200 µM
O=C1CC(c2ccccc2)=Nc2ccccc2N1 ... > 151 µM

Supply reported EC50 belonging to this compound: C[S+]1Cc2nc3ccccc3n2C1c1c(F)cccc1F (configuration not stated)
> 178 µM

Indicate the recorded EC50 value for this compound: NC(CCCCP(=O)(O)O)C(=O)O (configuration not stated)
> 200 µM

Name the recorded EC50 of the item CCCCCCCCOC1N(C2CC(N=[N+]=[N-])C(CO)O2)C(=O)NC(=O)[C@]1(C)Cl (some centres not stated) in your answer.
> 200 µM

Report EC50, nothing else, for this compound: C1CNCCNCCN1
> 200 µM

Quick one: give measured EC50 for Nc1ncc(/C=C/CNC(=O)c2ccc[nH]2)[nH]1
> 1070 µM

Quickly give me recorded EC50 for CCCCCCN(CCCCCC)CC(=O)Nc1ccc(S(=O)(=O)c2ccc(NC(=O)CN(CCCCCC)CCCCCC)cc2)cc1
> 200 µM

Identify measured EC50 associated with Cc1cc2ncn(C3CCCCO3)c2cc1C (configuration not stated)
> 200 µM

Indicate the recorded EC50 value for this compound: C=CCC(/C=C\CC)(C(=O)O)C(=O)O
> 661 µM

###

test system: CEM cells HIV-1 protection, formazan growth assay; experiment: NCI AIDS Antiviral Assay;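 active = compounds giving half or more protection of infected cells from virus-caused growth loss, again on retest; inactive = the rest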
Respond only with the outcome that fits, drawn from active, inactive

// below: answered compounds
O=C(O)CCCCCCCCCCC(=O)O ... inactive
O=C1N[C@@H]([C@H]2CC[C@H](Cl)CN2)C(=O)N[C@H]1[C@H]1CC[C@H](Cl)CN1 ... inactive
CN(C)Cc1cc(C(=O)/C=C/c2c(Cl)cccc2Cl)cc(CN(C)C)c1O ... inactive

Lab log entry: O=P(O)(Cc1ccccc1)c1ccccc1-c1ccccc1 — outcome as called in the assay?
inactive

Name the outcome recorded for O=C1/C(=C/c2ccc(O)cc2)CCCC1CN1CCCCC1 (stereo unspecified) in the assay.
inactive

Fill in: this test's call for [O-][n+]1onc(-c2ccccc2)c1-c1ccccc1 is ___
inactive

State the result this test recorded for O=c1cc(NCC2CCCCC2)[nH]c(=O)[nH]1 .
inactive

###

Quick reference for IC50 among some compounds
tested on: CEM cells HIV-1 protection, formazan growth assay; experiment: NCI AIDS Antiviral Assay; settings: measured here: growth of uninfected CEM cells
Answer in µM, number only, no unit symbol.

COc1ccc2c(ccc3[nH]c4c(C)cnc(NCCCN(C)C)c4c32)c1 ... 0.132
COc1cc(/C=C/C(=O)OCC23CC[C@@]4(C(=O)O)CCC(C)[C@H](C)C4C2=CCC2[C@@]4(C)CC[C@H](O)C(C)(C)C4CC[C@]23C)ccc1O (stereo partly drawn) ... 1.05
Cc1cn(COCCCO[Si](C)(C)C(C)(C)C)c(=O)[nH]c1=O ... 174
COc1cc(OC)c2nc3occc3c(OC)c2c1 ... 58.9

# evaluate next
Supply reported IC50 belonging to this compound: C(=C/[PH+](c1ccccc1)c1ccccc1)/[PH+](c1ccccc1)c1ccccc1.C(=C/[PH+](c1ccccc1)c1ccccc1)/[PH+](c1ccccc1)c1ccccc1.C(=C/[PH+](c1ccccc1)c1ccccc1)/[PH+](c1ccccc1)c1ccccc1.[Pt]
3.24

###

test system: CEM cells HIV-1 protection, formazan growth assay; assay: NCI AIDS Antiviral Assay
Parameter Measured: EC50

CN(C)c1ccc(/C=C/C(=O)c2ccccc2)cc1 ... > 39.8 µM
CN1C(=O)C(/C=N/NC(=O)c2cccnc2)C(N)N(C)C1=O (stereo unspecified) ... > 200 µM
C/C(=N\NC(=O)c1ccncc1)c1sc(-n2nc(-c3ccccc3)cc2-c2ccccc2)nc1C ... > 11 µM

Supply measured EC50 of Cc1cc(N(CCC#N)S(=O)(=O)c2ccccc2)ccc1C=Nc1ccc(C(=O)O)cc1 in your reply.
> 151 µM

Annotate the compound NNC(=O)c1n[nH]n(N)c1=S with its measured EC50.
> 200 µM

Supply recorded EC50 for Cc1c(C(=O)CC(=O)C(=O)Nc2ccccc2C(F)(F)F)[n+](=O)c2ccccc2n1[O-] here.
> 4.57 µM

###

system: CEM cells HIV-1 protection, formazan growth assay; assay: NCI AIDS Antiviral Assay;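 active = compounds giving half or more protection of infected cells from virus-caused growth loss, again on retest; inactive = the rest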
Answer with one of the outcomes given here: y (active), n (inactive)

FC(F)C(F)(F)N1c2ccccc2Sc2ccccc21 ... n

Can you look up the reported call for CCCCOC(=O)CSSCC(=O)OCCCC for me?
n

Kindly provide the recorded test outcome for the following compound: CCCCCCCCCC=C(c1cc(Br)c(O)c(C(=O)O)c1)c1cc(Br)c(O)c(C(=O)O)c1
y

Tell me the recorded outcome of this test for CSCCC1OCC2OC(n3ccc(=O)[nH]c3=O)CC2N1O (stereo not drawn) .
n

Assay result, entry Clc1ccc([S+](c2ccc(Cl)cc2)C(Cl)(Cl)C(Cl)(Cl)Cl)cc1 — outcome?
n

Short answer needed: outcome of this test for Cn1cnc2c1S(=O)(=O)NC(=S)N2 ?
n

# fetch the recorded call for Cc1cc(-c2ccccc2)oc(=O)c1NC(=O)c1cnccn1 here
n

# fetch the recorded call for O=C(OCC(Cl)(Cl)Cl)N1CC[C@H](C2CCCCC2)C1 here
n

###

A collection of molecules and their measured pIC50
system: CEM cells HIV-1 protection, formazan growth assay; experiment: NCI AIDS Antiviral Assay; conditions: measured here: growth of uninfected CEM cells
Where a SMILES comes first, the peptide text is derived from it. The star is where a group is joined. Boc = CC(C)(C)OC(=O)*; OcHex = C1CCC(O*)CC1
Bear in mind: pIC50 is minus log10 of a mol/L concentration; give just that figure.

C[C@@H](c1ccccc1)n1c(N)c(C#N)c2ccc([N+](=O)[O-])cc2c1=O ... 4.91
Clc1ccc(Nc2nnc(CNc3ccc(-c4nnc(Nc5ccc(Cl)cc5)s4)cc3)s2)cc1 ... 4.88
CC(C)CC(NC(=O)OC(C)(C)C)C(=O)NC(CCC(=O)OC1CCCCC1)C(N)=O (stereo not drawn) (Boc-Leu-Glu(OcHex)-NH2; configuration not given here) ... 3.90

// fetch pIC50 given entry Nc1ncnc2c1ncn2C1SC(CO)C(O)C1O (centres undefined)
3.83

Fill in pIC50 for record COc1ccccc1/C=C(\C#N)C(=O)O
3.60

###

test system: CEM cells HIV-1 protection, formazan growth assay; assay: NCI AIDS Antiviral Assay; conditions: measured here: growth of uninfected CEM cells
Parameter Measured: pIC50
Kindly note that pIC50 refers to -log10 of the concentration in mol/L and answer with the value alone.

CCOC(=O)N1c2c(ccn2C)-c2ccn(C)c2N1C(=O)OCC ... 5.23

State pIC50 on CEM cells HIV-1 protection, formazan growth assay. Entry: Cc1occc1C(=S)Nc1ccc(Cl)c(C(=O)OC(C(C)C)C(C)C)c1
4.88

Lab note: record pIC50 of CC(SS(=O)(=O)O)C(N)=NCc1ccccc1 (stereo unspecified) tested on CEM cells HIV-1 protection, formazan growth assay.
4.17

// fetch pIC50; item: CCCCC1OC2O[C@]3(C)CCC4C(C)CCC([C@H]1C)C24OO3 (stereo partly specified) ; system: CEM cells HIV-1 protection, formazan growth assay
4.65

###

test system: CEM cells HIV-1 protection, formazan growth assay; assay: NCI AIDS Antiviral Assay;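 active = compounds giving half or more protection of infected cells from virus-caused growth loss, again on retest; inactive = the rest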
// allowed return values: active, inactive

Outcome? Nc1ccn(C2OC(CO)C(O)C2Br)c(=O)n1 (stereo not given)
inactive

###

tested on: CEM cells HIV-1 protection, formazan growth assay; assay: NCI AIDS Antiviral Assay; settings: measured here: growth of uninfected CEM cells
Parameter Measured: IC50

Example results:
C1CCC(N=C2N(C3CCCCC3)C(=NC3CCCCC3)N2C2CCCCC2)CC1 ... > 9.12 µM
OC(c1ccc(F)cc1)C(F)(F)c1nc2ccccc2o1 (stereo unspecified) ... > 200 µM
COc1ccccc1C1C(Cl)C(=O)N1NC(=O)Cc1ccccc1 (stereo unspecified) ... > 39.8 µM
CC1=CC(C)N(C(=O)c2ccc(Cl)cc2)CCN1C(=O)c1ccc(Cl)cc1 (stereo unspecified) ... 33.9 µM
COc1c(NC(=O)CC(C)=O)[c]([Hg][O]C(C)=O)c(OC)c(Cl)[c]1[Hg][O]C(C)=O ... > 0.692 µM
CCOC(=O)c1nc2ccc(C(F)(F)F)cc2nc1NCc1ccc(Cl)c(Cl)c1 ... 17 µM

Hello, please tell me recorded IC50 for this one: O=C(O)/C=C/c1ccccc1[N+](=O)[O-]
> 257 µM

Consider the molecule COCOc1cc(C)c(C(=O)Oc2cc(C)c(C(=O)OC)c(OCOC)c2C)c(OCOC)c1C=O and give its recorded IC50.
26.9 µM

Query IC50 for CCCCCCCCCCn1nnc2c(=O)[nH]c(N)nc21
52.5 µM

# return recorded IC50 for entry CSc1c(C#N)c2n(c3ccccc13)c1ccccc1[n+]2C
6.76 µM

Find the measured IC50 of COc1cc2c(cc1OCCN1C(=O)c3cccc4cccc(c34)C1=O)N=C[C@@H]1CCCN1C2=O and report it.
5.5 µM

State its IC50: O=C(Nc1nccs1)Nc1cc(C(F)(F)F)ccc1Cl
> 200 µM

Note down IC50 recorded for C/C=C(/C1CC(=O)N2CCc3c([nH]c4ccccc34)C2C1)[Si](C)(C)C (stereo unspecified)
> 10.7 µM

Return the recorded IC50 value; entry: Cc1cc(C)[n+]([O-])c(C)c1
977 µM

Please report IC50 for the following molecule: Cc1cc(C)c(C(=O)c2no[n+]([O-])c2C(=O)c2c(C)cc(C)c(Br)c2C)c(C)c1Br
> 1.95 µM

Return value of IC50 for input O=S(=O)(O)CCCCO , no commentary.
> 200 µM

Identify measured IC50 associated with O=[N+]([O-])c1cc([N+](=O)[O-])c(C(Cl)C(Cl)c2ccccc2)cc1C(Cl)C(Cl)c1ccccc1 (stereo unspecified)
> 5.25 µM

Respond only with IC50 recorded for COc1ccc2[nH]c(S(=O)(=O)N3CC(CCl)c4ccc(N)cc43)cc2c1 (stereo unspecified)
0.102 µM

State its IC50 for this molecule: Cc1ccc([B-]23OCC[N+]2(CNC(=O)C2=C(O)C4(O)C(=O)C5=C(O)c6c(O)cccc6C(C)(O)C5CC4C(N(C)C)C2=O)CCO3)cc1 (stereo unspecified)
> 53.7 µM

Consider the molecule O=C(N/N=C/C=C/c1ccccc1)c1ccncc1 . State its measured IC50.
33.1 µM

State, in one line, measured IC50 of Cc1ccc(-n2cc(-c3ccc(Cl)cc3)c3c2N=CN2NC(c4ccco4)=NC32)cc1 (stereo unspecified)
74.1 µM

Value source: PubChem BioAssay AID179
